MEASURED TARGET: Sodium-dependent serotonin transporter (Rattus norvegicus)
Sequence (P31652 whole entry): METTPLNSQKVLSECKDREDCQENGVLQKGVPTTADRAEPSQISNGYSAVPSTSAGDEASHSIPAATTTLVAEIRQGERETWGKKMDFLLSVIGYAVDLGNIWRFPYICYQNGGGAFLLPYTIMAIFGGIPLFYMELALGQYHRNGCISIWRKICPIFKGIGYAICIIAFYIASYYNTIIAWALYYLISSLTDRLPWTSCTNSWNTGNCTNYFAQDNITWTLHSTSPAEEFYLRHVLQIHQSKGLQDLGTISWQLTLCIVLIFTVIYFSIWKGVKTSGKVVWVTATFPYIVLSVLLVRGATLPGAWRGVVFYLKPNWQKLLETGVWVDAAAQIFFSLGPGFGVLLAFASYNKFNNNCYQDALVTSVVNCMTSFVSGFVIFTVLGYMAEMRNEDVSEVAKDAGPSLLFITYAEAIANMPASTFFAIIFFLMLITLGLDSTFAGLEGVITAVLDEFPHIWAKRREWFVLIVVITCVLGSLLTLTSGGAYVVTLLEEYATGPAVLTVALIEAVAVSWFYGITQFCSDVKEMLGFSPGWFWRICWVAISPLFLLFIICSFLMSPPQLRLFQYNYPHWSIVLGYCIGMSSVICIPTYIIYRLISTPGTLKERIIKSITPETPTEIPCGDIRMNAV
PROCEDURE DETAILS: Inhibition of [3H]5-HT reuptake at rat serotonin transporter
Cut-off 1 µM on IC50: below means yes (1), at or above means no (0).

Problem: Given the entry CNCCN(C)CCOC(c1ccccc1)c1ccccc1 , would its reported IC50 be below 1 µM?
Solution: no (0)

Problem: # TODO verify IC50 < 1 µM strictly for this compound: C[C@@H]1CN(CCOC(c2ccccc2)c2ccccc2)[C@@H](C)CN1CCOC(c1ccccc1)c1ccccc1
Solution: no (0)

Problem: Please let me know if c1ccc(CCCNCCCCNCCOC(c2ccccc2)c2ccccc2)cc1 shows IC50 below 1 µM.
Solution: yes (1)

Problem: Lab note: IC50 threshold 1 µM. Does this compound come in strictly under it? NCCCCNCCOC(c1ccccc1)c1ccccc1
Solution: no (0)

Problem: Take the compound Fc1ccc(C(OCCN2CCCN(C/C=C/c3ccccc3)CC2)c2ccc(F)cc2)cc1 and say whether its IC50 is less than 1 µM.
Solution: yes (1)

Problem: Hello, is IC50 of the following compound strictly smaller than 1 µM? C[C@@H]1CN(CCOC(c2ccccc2)c2ccccc2)[C@@H](C)CN1C/C=C/c1ccccc1
Solution: no (0)

Problem: Record C[C@@H]1CN(CCOC(c2ccc(F)cc2)c2ccc(F)cc2)[C@@H](C)CN1 : is its IC50 strictly below 1 µM?
Solution: no (0)

Problem: Is the reported IC50 for CN(CCCc1ccccc1)CCN(C)CCOC(c1ccccc1)c1ccccc1 strictly below 1 µM?
Solution: no (0)

Problem: Is 1 µM strictly greater than the compound's reported IC50? compound: C[C@@H]1CN(CCCc2ccccc2)[C@@H](C)CN1
Solution: no (0)

Problem: hey, is IC50 for c1ccc(C(OCCN2CCN(CCOC(c3ccccc3)c3ccccc3)CC2)c2ccccc2)cc1 lower than 1 µM or not?
Solution: no (0)

Problem: Just wondering, is IC50 of c1ccc(C(OCCN2CCCNCC2)c2ccccc2)cc1 below 1 µM?
Solution: no (0)

Problem: Find out if reported IC50 for C[C@@H]1CN(CCOC(c2ccccc2)c2ccccc2)[C@@H](C)CN1 is less than 1 µM
Solution: no (0)

Problem: Strictly below 1 µM in IC50? c1ccc(CCCNC2CCCCN(CCOC(c3ccccc3)c3ccccc3)C2)cc1 (stereo not given)
Solution: no (0)

Problem: Report whether reported IC50 is lower than 1 µM (strictly) for C[C@@H]1CN(CCOC(c2ccccc2)c2ccccc2)[C@@H](C)CN1CCCc1ccccc1
Solution: no (0)

Problem: IC50 strictly < 1 µM for this compound? c1ccc(C(OCCN2CCNCC2)c2ccccc2)cc1
Solution: no (0)

Problem: Does this compound meet the criterion IC50 < 1 µM? c1ccc(CCCN2CCCCN(CCOC(c3ccccc3)c3ccccc3)CC2)cc1
Solution: no (0)

Problem: Answer whether the compound Fc1ccc(C(OCCN2CCC[C@H]2CNCCCc2ccccc2)c2ccc(F)cc2)cc1 has IC50 strictly less than 1 µM
Solution: no (0)

Problem: For the compound Fc1ccc(C(OCCN2CCCNCC2)c2ccc(F)cc2)cc1 , is IC50 under 1 µM?
Solution: no (0)

Problem: Hello, I'm reviewing records and need to know if IC50 of Fc1ccc(C(OCCN2CCN(CCOC(c3ccc(F)cc3)c3ccc(F)cc3)CC2)c2ccc(F)cc2)cc1 is below 1 µM. Could you check?
Solution: yes (1)

Problem: Does this compound meet the criterion IC50 < 1 µM? c1ccc(CCCN2CCNCC2)cc1
Solution: yes (1)

Problem: Just wondering, is IC50 of C[C@@H]1CN(CCCc2ccccc2)[C@@H](C)CN1CCCc1ccccc1 below 1 µM?
Solution: no (0)

Problem: Is it true that IC50 reported for c1ccc(CCCN2CCCN(CCOC(c3ccccc3)c3ccccc3)CC2)cc1 is less than 1 µM?
Solution: no (0)

Problem: is_below(IC50, 1 µM) for CC(C)(CN)CNCCOC(c1ccccc1)c1ccccc1 ?
Solution: no (0)

Problem: Hello, is IC50 of the following compound strictly smaller than 1 µM? Fc1ccc(C(OCCN2CCNCC2)c2ccc(F)cc2)cc1
Solution: no (0)

Problem: Check if IC50 falls below 1 µM for C[C@@H]1CN(CCOC(c2ccc(F)cc2)c2ccc(F)cc2)[C@@H](C)CN1CCOC(c1ccc(F)cc1)c1ccc(F)cc1 .
Solution: no (0)

Problem: Is 1 µM strictly greater than the compound's reported IC50? compound: C[C@@H]1CN(CCOC(c2ccc(F)cc2)c2ccc(F)cc2)[C@@H](C)CN1C/C=C/c1ccccc1
Solution: no (0)

Problem: In the record for Fc1ccc(C(OCCN2CCCN(CCCc3ccccc3)CC2)c2ccc(F)cc2)cc1 , is IC50 less than 1 µM?
Solution: yes (1)

Problem: Quick check: does c1ccc(CCCN2CCCCC(NCCOC(c3ccccc3)c3ccccc3)C2)cc1 (stereo not given) have IC50 under 1 µM?
Solution: no (0)

Problem: I'd appreciate it if you could check whether C(=C\c1ccccc1)/CN1CCCN(CCOC(c2ccccc2)c2ccccc2)CC1 has IC50 smaller than 1 µM.
Solution: yes (1)

Problem: Record CC(C)(CNCCCc1ccccc1)CNCCOC(c1ccccc1)c1ccccc1 : is its IC50 strictly below 1 µM?
Solution: no (0)

Problem: Identify whether the compound c1ccc(CCCN2CCN(CCCc3ccccc3)CC2)cc1 records IC50 below 1 µM.
Solution: no (0)

Problem: Regarding CC1(C)CN(CCCc2ccccc2)CCN(CCOC(c2ccccc2)c2ccccc2)C1 , kindly confirm whether its IC50 is beneath 1 µM.
Solution: no (0)

Problem: Input c1ccc(CCCNC[C@H]2CCCN2CCOC(c2ccccc2)c2ccccc2)cc1 ; condition: IC50 strictly below 1 µM. Does it hold?
Solution: no (0)

Problem: Field: below-cutoff. Rule: recorded IC50 strictly less than 1 µM. Subject: C[C@@H]1CN(CCOC(c2ccc(F)cc2)c2ccc(F)cc2)[C@@H](C)CN1CCCc1ccccc1
Solution: yes (1)
